Below, each entry is listed with its recorded pIC50.
- System: HeLa
- measurement.protocol: Antiproliferative activity against human HeLa cells assessed as inhibition of cell growth incubated for 72 hrs by MTT assay
- Type: functional, cell-based
Lab note — pIC50 values are minus log10 of concentrations in M.

Worked cases, answers included:
# line.notation, pIC50
data = [
    ("O=C1C=C[C@@H](OCc2ccccc2)[C@@H]([C@@H](COC(=O)c2ccccc2)OCc2ccccc2)O1", 5.08),
    ("COc1ccc(/C=C/C(=O)O[C@@H]2C=CC(=O)O[C@@H]2[C@@H](COC(=O)c2ccccc2)OC(C)=O)cc1OC", 5.06),
    ("CC(=O)O[C@H](COC(=O)c1ccccc1)[C@H]1OC(=O)C=C[C@H]1OC(=O)/C=C/c1ccccc1", 5.15),
]

Attention now shifts to the item below.
Input: Tell me its pIC50 given CC(=O)O[C@H](COC(=O)c1ccccc1)[C@H]1OC(=O)C=C[C@H]1OC(=O)/C=C/c1ccc(F)cc1 as the entry.
Output: 4.75
